Cited source for all entries: ChEMBL document CHEMBL1145209

assay: Inhibitory activity against chymotrypsin
pKi: −log10 of the molar value.
measurementLabel: pKi

Task item: Dear colleague, please send me the reported pKi for NCc1ccc(Cl)cc1CNC(=O)[C@@H]1CCCN1C(=O)C1(O)c2ccccc2-c2cnccc21 (stereo in doubt; form 2) when you can.
Reply: < 4.00

* * *

Can you tell me Activity for the items I'm about to list?
test system: Cell line; test: Percent of free compound observed in human plasma (unbound to plasma protein); assay type: functional
Your answer should be a plain number; it is taken to be in %.

Task item: Check Cell line data and give Activity for NCc1ccc(Cl)cc1CNC(=O)[C@@H]1CCCN1C(=O)C1(O)c2cc(Cl)ccc2-c2ncccc21 (single isomer, unassigned) .
Reply: 11

Task item: Check Cell line data and give Activity for NCc1ccc(Cl)cc1CNC(=O)[C@@H]1CCCN1C(=O)C1(O)c2ccccc2-c2cnccc21 (stereo in doubt; form 2) .
Reply: 8

Task item: Check Cell line data and give Activity for NCc1ccc(Cl)cc1CNC(=O)[C@@H]1CCCN1C(=O)C1(O)c2ccccc2-c2cnccc21 (stereo in doubt; form 1) .
Reply: 22

Task item: Check Cell line data and give Activity for NCc1ccc(Cl)cc1CNC(=O)[C@@H]1CCCN1C(=O)C1(O)c2ccccc2-c2cccnc21 (single isomer, unassigned; form 1) .
Reply: 7

Task item: Check Cell line data and give Activity for NCc1ccc(Cl)cc1CNC(=O)[C@@H]1CCCN1C(=O)C1(O)c2ccccc2-c2c1ccc[n+]2[O-] (stereo in doubt; form 2) .
Reply: 56

Task item: Check Cell line data and give Activity for NCc1ccc(Cl)cc1CNC(=O)[C@@H]1CCCN1C(=O)C1(O)c2ccccc2-c2cccnc21 (single isomer, unassigned; form 2) .
Reply: 9

Task item: Check Cell line data and give Activity for NCc1ccc(Cl)cc1CNC(=O)[C@@H]1CCCN1C(=O)C1(O)c2ccccc2-c2cc[n+]([O-])cc21 (stereo in doubt; form 2) .
Reply: 59

Task item: Check Cell line data and give Activity for NCc1ccc(Cl)cc1CNC(=O)[C@@H]1CCCN1C(=O)C1(O)c2ccccc2-c2ccc[n+]([O-])c21 (stereo in doubt; form 1) .
Reply: 35

Task item: Check Cell line data and give Activity for NCc1ccc(Cl)cc1CNC(=O)[C@@H]1CCCN1C(=O)C1(O)c2ccccc2-c2ccncc21 (stereo in doubt; form 2) .
Reply: 27

Task item: Check Cell line data and give Activity for NCc1ccc(Cl)cc1CNC(=O)[C@@H]1CCCN1C(=O)C1(O)c2ccccc2-c2c[n+]([O-])ccc21 (stereo in doubt; form 2) .
Reply: 16

Task item: Check Cell line data and give Activity for NCc1ccc(Cl)cc1CNC(=O)[C@@H]1CCCN1C(=O)C1(O)c2ccccc2-c2ccccc21 .
Reply: 1

Task item: Check Cell line data and give Activity for NCc1ccc(Cl)cc1CNC(=O)[C@@H]1CCCN1C(=O)C1(O)c2cc(Cl)ccc2-c2ncccc21 (stereo in doubt) .
Reply: 6

Task item: Check Cell line data and give Activity for NCc1ccc(Cl)cc1CNC(=O)[C@@H]1CCCN1C(=O)C1(O)c2ccccc2-c2ccncc21 (stereo in doubt; form 1) .
Reply: 13

Task item: Check Cell line data and give Activity for NCc1ccc(Cl)cc1CNC(=O)[C@@H]1CCCN1C(=O)C1(O)c2ccccc2-c2ncccc21 (single isomer, unassigned) .
Reply: 12

Task item: Check Cell line data and give Activity for N[C@H]1CC[C@H](CNC(=O)[C@@H]2CCCN2C(=O)C2(O)c3ccccc3-c3ccccc32)CC1 .
Reply: 8

Task item: Check Cell line data and give Activity for NCCc1ccc(Cl)cc1CNC(=O)[C@@H]1CCCN1C(=O)C1(O)c2ccccc2-c2ccccc21 .
Reply: 3

* * *

assay: Inhibitory activity against trypsin
measurementLabel: Ki
The answer consists of two parts: a number and, after it, its unit.

Task item: Dear colleague, please send me the reported Ki for NCc1ccc(Cl)cc1CNC(=O)[C@@H]1CCCN1C(=O)C1(O)c2ccccc2-c2cnccc21 (stereo in doubt; form 2) when you can.
Reply: 2.5 µM

* * *

Can you tell me half-life for the items I'm about to list?
experiment: Plasma half-life of compound upon i.v. and p.o. dose at 1 mg/kg in male Beagle dogs (n=2); format: ADME, organism-based, Canis lupus familiaris; design: dose 1 mg/kg, route oral; conditions: dog, po
Your answer should be a plain number; it is taken to be in min.

Task item: Dear colleague, please send me the reported half-life for NCCc1ccc(Cl)cc1CNC(=O)[C@@H]1CCCN1C(=O)C1(O)c2ccccc2-c2ccccc21 when you can.
Reply: 840

Task item: Dear colleague, please send me the reported half-life for NCc1ccc(Cl)cc1CNC(=O)[C@@H]1CCCN1C(=O)C1(O)c2ccccc2-c2cnccc21 (stereo in doubt; form 2) when you can.
Reply: 840

Task item: Dear colleague, please send me the reported half-life for NCc1ccc(Cl)cc1CNC(=O)[C@@H]1CCCN1C(=O)C1(O)c2ccccc2-c2c1ccc[n+]2[O-] (stereo in doubt; form 2) when you can.
Reply: 342

Task item: Dear colleague, please send me the reported half-life for NCc1ccc(Cl)cc1CNC(=O)[C@@H]1CCCN1C(=O)C1(O)c2ccccc2-c2ccccc21 when you can.
Reply: 780

Task item: Dear colleague, please send me the reported half-life for NCc1ccc(Cl)cc1CNC(=O)[C@@H]1CCCN1C(=O)C1(O)c2ccccc2-c2ncccc21 (stereo in doubt) when you can.
Reply: 330

* * *

Can you tell me Concentration for the items I'm about to list?
test: Inhibition of human plasma coagulation triggered by intrinsic pathway by doubling the activated partial thromboplastin time (2x APTT); type: functional, cell-free; conditions: Cell line
Your answer should be a plain number; it is taken to be in µM.

Task item: Dear colleague, please send me the reported Concentration for NCc1ccc(Cl)cc1CNC(=O)[C@@H]1CCCN1C(=O)C1(O)c2ccccc2-c2ccccc21 when you can.
Reply: 0.37

Task item: Dear colleague, please send me the reported Concentration for NCc1ccc(Cl)cc1CNC(=O)[C@@H]1CCCN1C(=O)C1(O)c2cc(Cl)ccc2-c2ncccc21 (stereo in doubt) when you can.
Reply: 0.22

Task item: Dear colleague, please send me the reported Concentration for NCc1ccc(Cl)cc1CNC(=O)[C@@H]1CCCN1C(=O)C1(O)c2ccccc2-c2c1ccc[n+]2[O-] (stereo in doubt; form 2) when you can.
Reply: 0.27

Task item: Dear colleague, please send me the reported Concentration for NCc1ccc(Cl)cc1CNC(=O)[C@@H]1CCCN1C(=O)C1(O)c2ccccc2-c2cnccc21 (stereo in doubt; form 2) when you can.
Reply: 0.18

Task item: Dear colleague, please send me the reported Concentration for NCc1ccc(Cl)cc1CNC(=O)[C@@H]1CCCN1C(=O)C1(O)c2cc(Cl)ccc2-c2ncccc21 (single isomer, unassigned) when you can.
Reply: 0.13

Task item: Dear colleague, please send me the reported Concentration for NCc1ccc(Cl)cc1CNC(=O)[C@@H]1CCCN1C(=O)C1(O)c2ccccc2-c2ccncc21 (stereo in doubt; form 2) when you can.
Reply: 0.12

Task item: Dear colleague, please send me the reported Concentration for NCc1ccc(Cl)cc1CNC(=O)[C@@H]1CCCN1C(=O)C1(O)c2ccccc2-c2c[n+]([O-])ccc21 (stereo in doubt; form 2) when you can.
Reply: 0.19

Task item: Dear colleague, please send me the reported Concentration for NCc1ccc(Cl)cc1CNC(=O)[C@@H]1CCCN1C(=O)C1(O)c2ccccc2-c2ccncc21 (stereo in doubt; form 1) when you can.
Reply: 0.94

Task item: Dear colleague, please send me the reported Concentration for NCc1ccc(Cl)cc1CNC(=O)[C@@H]1CCCN1C(=O)C1(O)c2ccccc2-c2c1ccc[n+]2[O-] (stereo in doubt; form 1) when you can.
Reply: 0.43

Task item: Dear colleague, please send me the reported Concentration for NCc1ccc(Cl)cc1CNC(=O)[C@@H]1CCCN1C(=O)C1(O)c2ccccc2-c2ncccc21 (single isomer, unassigned) when you can.
Reply: 0.23

Task item: Dear colleague, please send me the reported Concentration for NCc1ccc(Cl)cc1CNC(=O)[C@@H]1CCCN1C(=O)C1(O)c2ccccc2-c2cccnc21 (single isomer, unassigned; form 2) when you can.
Reply: 0.13

Task item: Dear colleague, please send me the reported Concentration for NCc1ccc(Cl)cc1CNC(=O)[C@@H]1CCCN1C(=O)C(O)(c1ccccc1)c1ccccc1 when you can.
Reply: 0.47

Task item: Dear colleague, please send me the reported Concentration for N[C@H]1CC[C@H](CNC(=O)[C@@H]2CCCN2C(=O)C2(O)c3ccccc3-c3ccccc32)CC1 when you can.
Reply: 0.85

* * *

assay: Total clearance in plasma upon i.v. (1 mg/kg) and p.o. (2 mg/kg) dose in male rhesus macaques (n=2); assay type: ADME, organism-based; settings: cercopithecidae, iv
measurementLabel: clearance

Task item: Dear colleague, please send me the reported clearance for NCc1ccc(Cl)cc1CNC(=O)[C@@H]1CCCN1C(=O)C1(O)c2ccccc2-c2ncccc21 (stereo in doubt) when you can.
Reply: 1.9 mL/min/kg

Task item: Dear colleague, please send me the reported clearance for NCc1ccc(Cl)cc1CNC(=O)[C@@H]1CCCN1C(=O)C1(O)c2ccccc2-c2c1ccc[n+]2[O-] (stereo in doubt; form 2) when you can.
Reply: 6.4 mL/min/kg

Task item: Dear colleague, please send me the reported clearance for NCc1ccc(Cl)cc1CNC(=O)[C@@H]1CCCN1C(=O)C1(O)c2ccccc2-c2cnccc21 (stereo in doubt; form 2) when you can.
Reply: 4.1 mL/min/kg
